Tested on: giant foxtail (Setaria faberii)
Procedure Details: Test A preemergence
Format: in vivo
Condition Description: Setaria faberi, pre-emergence, 240 h, 125 g ai/ha, preemergence; 0 to 100 scale where 0 is no effect and 100 is complete control; approx. 10 d; read-out: Foxtail, Giant plant response rating
Reported Endpoint: pest or weed control at 125 g/ha
Please state the number and follow it with the unit.

| Compound | Endpoint Result |
| --- | --- |
| O=C1NCC[C@H](c2cccc(Cl)c2)[C@H]1C(=O)Nc1ccccc1F | 70% |
| CN1CC(c2cccc(/C=C/Cl)c2)C(C(=O)Nc2ccccc2F)C1=O (stereo not shown) | 90% |
| CC(C)Oc1ccc([C@H]2CNC(=O)[C@@H]2C(=O)Nc2ccccc2F)cc1 | 0% |
| CN1C[C@H](c2ccc3ncccc3c2)[C@@H](C(=O)Nc2cccc(F)c2F)C1=O | 50% |

Prompt: Return pest or weed control at 125 g/ha for the following compound: "CN1C[C@H](c2ccc(Cl)cc2)[C@@H](C(=O)Nc2ccc(F)c(F)c2F)C1=O"
Response: 90%
